For each of the compounds below, state its Potency.
TARGET: Lysosomal acid glucosylceramidase (Homo sapiens) (UniProt P04062)
TEST NAME: qHTS Assay for Inhibitors and Activators of N370S glucocerebrosidase as a Potential Chaperone Treatment of Gaucher Disease; note: potency is the fitted concentration of half-maximal effect
EXPERIMENTAL CONDITIONS: N370S GC spleen homogenate, 4MU-glucoside fluorescence; series mostly up to 59.4 µM
Excerpt: NIH Chemical Genomics Center [NCGC] NIH Molecular Libraries Probe Production Centers Network [MLPCN] Assay Submitter (PI): Wei Zheng Glucocerebrosidase (GC) catalyzes the hydrolysis of beta-glucocerebroside to glucose and ceramide in lysosomes. Mutations in the glucocerebrosidase gene result in Gaucher disease, an autosomal recessive lysosomal storage disorder. […] (6) Detect the assay plate in a ViewLux plate reader (PerkinElmer) with Ex=365 nm and Em=440nm. […]
Screen size: about 330,000 compounds; about 300 (0.091%) were called active. Not shown: some 4% with an inconclusive outcome. Many of the other results were omitted from the sample, so actives are more common in it than they were.

In: Need Potency, item `CCOc1ccc(N(CC(=O)Nc2ccccc2F)S(=O)(=O)c2c(C)[nH]c(=O)[nH]c2=O)cc1`
Out: 3.16 µM (active)

In: Then what about the compound `Cc1cc(N)n2nc(-c3ccc(C(C)(C)C)cc3)cc2n1` ?
Out: 10 µM (active)

In: Then what about the compound `CCC(=O)OCCNc1nc(-c2ccccc2)nc2ccccc12` ?
Out: 2 µM (active)

In: Then what about the compound `CCOc1ccc(N(CC(=O)NC2CCCCCC2)S(=O)(=O)c2c(C)[nH]c(=O)[nH]c2=O)cc1` ?
Out: 2.51 µM (active)

In: Then what about the compound `O=C1CC(=O)Nc2cc(S(=O)(=O)N3CCN(c4cccc(C(F)(F)F)c4)CC3)ccc2N1` ?
Out: 14.1 µM (active)

In: Then what about the compound COc1cc(C2C(C#N)=C(C)NC3=C2C(=O)CC(C)(C)C3)ccc1O (configuration not stated) ?
Out: 10 µM (active)

In: Then what about the compound `C#CCOCCOCCOCCNc1nc(N2CCN(C(=O)CCCCCCCCCCNC(=O)[C@H](CCCCN)n3cc(C)nn3)CC2)nc(N2CCN(C(=O)CCCCCCCCCCNC(=O)[C@H](CO)n3cc(CCCSC)nn3)CC2)n1` ?
Out: 15.8 µM (active)

---

TARGET: Lysosomal acid glucosylceramidase (Homo sapiens)
TEST NAME: qHTS Assay for Inhibitors and Activators of N370S glucocerebrosidase as a Potential Chaperone Treatment of Gaucher Disease
EXPERIMENTAL CONDITIONS: N370S GC spleen homogenate, 4MU-glucoside fluorescence; series mostly up to 59.4 µM
The whole screen tested about 330,000 compounds, of which about 300 (0.091%) were called active. Inconclusive results (about 4%) are left out. The sample holds actives, similar compounds and a random draw of the others, so the mix is not that of the screen.
OBSERVATION TYPE: activity change, negative = inhibition

In: Need activity change, negative = inhibition, item `CN(CC(=O)NCCc1ccc(F)cc1)CC(=O)Nc1ccc(F)c(F)c1F`
Out: inactive

In: Then what about the compound CCN(CC)S(=O)(=O)c1ccc(CNC(=O)CN2C(=O)NC3(CCc4ccccc43)C2=O)cc1 (stereo not given) ?
Out: inactive

In: Then what about the compound `COc1ccc(-c2nc(-c3ccccc3)oc2Nc2ccc3ccccc3c2)cc1` ?
Out: inactive

In: Then what about the compound `O=C(Nc1cccc(C(=O)NC2CC2)c1)c1ccc(F)c(S(=O)(=O)N2CCOCC2)c1` ?
Out: inactive

Moving on to the next compound.
In: Need activity change, negative = inhibition, item BrC1C(Br)C(Br)C(Br)C(Br)C1Br (stereo not given)
Out: inactive

src = PubChem BioAssay AID2101
